- targetDesc: furin, P09958;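 note: purified furin at 1:10 enzyme:substrate in 50 mM HEPES pH 7.5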
- Sequence (P09958 whole entry): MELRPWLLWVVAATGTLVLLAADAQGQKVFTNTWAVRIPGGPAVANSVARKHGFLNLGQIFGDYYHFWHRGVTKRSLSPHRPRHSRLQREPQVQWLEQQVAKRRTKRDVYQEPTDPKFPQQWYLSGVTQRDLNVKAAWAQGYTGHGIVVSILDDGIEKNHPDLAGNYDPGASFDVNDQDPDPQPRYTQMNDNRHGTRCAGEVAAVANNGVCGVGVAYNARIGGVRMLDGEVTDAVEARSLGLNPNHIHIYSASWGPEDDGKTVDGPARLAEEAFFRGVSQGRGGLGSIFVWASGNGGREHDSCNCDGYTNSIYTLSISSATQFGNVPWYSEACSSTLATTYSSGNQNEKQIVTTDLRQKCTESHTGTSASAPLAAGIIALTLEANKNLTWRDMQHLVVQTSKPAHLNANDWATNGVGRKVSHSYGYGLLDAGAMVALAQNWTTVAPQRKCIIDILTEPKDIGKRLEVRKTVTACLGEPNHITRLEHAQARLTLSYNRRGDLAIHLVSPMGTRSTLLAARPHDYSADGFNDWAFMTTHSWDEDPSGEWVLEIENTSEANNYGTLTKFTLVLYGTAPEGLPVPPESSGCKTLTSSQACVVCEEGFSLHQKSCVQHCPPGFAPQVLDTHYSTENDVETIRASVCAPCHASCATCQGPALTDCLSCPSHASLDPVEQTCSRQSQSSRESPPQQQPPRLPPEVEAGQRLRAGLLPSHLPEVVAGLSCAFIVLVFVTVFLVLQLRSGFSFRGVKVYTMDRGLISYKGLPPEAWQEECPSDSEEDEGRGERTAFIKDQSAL
- assayText: furin cleavage Z-score vs untreated control; higher = more cleavage, active = 3.5 or more, inactive = 1 or less, 8 variable residues between constant flanks
- appliedConditions: 7.5 min
This is one part of the list. The hit rate among all sequences tested is not known here.
Assign MET whenever furin cleavage Z-score does not fall below 0.4; assign NOT MET whenever it does.

Assess whether reported furin cleavage Z-score for CAARGGRAAIAGNASASA [HC1627] sits at 0.4 or higher. NOT MET

Same lookup for CASDVVCCSMAGNASASA [HC2117] , please. MET

How about this sequence: CAYGLRDARSAGNASASA [FS-900] NOT MET

Now consider CAFCALARKMAGNASASA [HC621] . NOT MET

Again, but for CAIHARFRRGAGNASASA [FS-250] MET

What would you report for CAMMSRIFRHAGNASASA [FS-1236] ? NOT MET

CAFHIRRKRYAGNASASA [FU9] , same question. MET

Next sequence: CAESTLSTALAGNASASA [HC1329] NOT MET

Here is the next sequence: CAVREVPCHRAGNASASA [HC2430] NOT MET

Query CAQDARRARSAGNASASA [FS-845] next MET

Okay, and CAMKIRRRRHAGNASASA [FS-275] ? MET

What do you get for CALTARFRRGAGNASASA [FS-1374] ? MET

Okay, and CAMFECSQHLAGNASASA [HC1687] ? NOT MET

Continue with CAFHIRRKRYAGNASASA [FS-651] MET

Record: CARTGRQVLGAGNASASA [FS-3104] NOT MET
